- assay-text: Clearance in Sprague-Dawley rat
- Type: ADME, organism-based
- stated-conditions: in vivo
metric-name: clearance (mL/min/kg)
Lab book: enter the figure in mL/min/kg, no units written.

Give the measured clearance of CN(c1ccc(C(=O)Nc2cnc3ccccc3c2)cc1)C1CCCCC1 . 20

###

- assay-text: Metabolic stability in human liver microsomes after 15 mins
- Format: ADME, Microsome
- stated-conditions: read-out: Stability
metric-name: remaining at 0.25 h (%)
Lab book: enter the figure in %, no units written.

Give the measured remaining at 0.25 h of CN(c1ccc(C(=O)Nc2cnc3ccccc3c2)cc1)C1CCCCC1 . 25
